- target_or_test_system: catalytic domain (JH1, amino acids 808-1132) of human JAK2 (Homo sapiens, UniProt O60674)
- Construct: catalytic domain (JH1, amino acids 808-1132) of human JAK2; His (N)
- Sequence (O60674 808-1132): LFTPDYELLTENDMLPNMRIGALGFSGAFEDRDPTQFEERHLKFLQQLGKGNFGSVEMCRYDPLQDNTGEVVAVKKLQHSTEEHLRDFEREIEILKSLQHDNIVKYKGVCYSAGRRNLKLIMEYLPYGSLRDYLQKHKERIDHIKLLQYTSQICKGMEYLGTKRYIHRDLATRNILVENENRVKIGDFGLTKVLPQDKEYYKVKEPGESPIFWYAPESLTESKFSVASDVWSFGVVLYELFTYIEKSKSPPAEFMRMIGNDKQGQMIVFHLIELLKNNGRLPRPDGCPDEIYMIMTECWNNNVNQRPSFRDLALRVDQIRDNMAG
- experiment_notes: JAK2 HTRF Enzyme Activity Assay
- condition_notes: ATP 30 μM, read-out: ENZ 30UMATP
pIC50: −log10 of the molar value. Structures can show the parent of a compound that is named as a salt.

compound	pIC50
[2H]C([2H])([2H])N1C(=O)C2(CCCN(S(=O)(=O)C3(C)CC3)CC2)c2c1cnc1[nH]c(-c3cnn(C(C)C)c3)c(-c3ccc4c(cnn4C)c3)c21 (single isomer, unassigned) [Example 103, trifluoroacetate salt]	5.90 to 6.30
COC(=O)NC1CC(CC#N)(N2CCC3(CC2)C(=O)N(C)c2cnc4[nH]c(-c5cnn(C)c5)c(-c5ccccc5)c4c23)C1 (single isomer, unassigned)	6.30 to 7.00
CN1C(=O)C2(CCN(C(=O)CC3CCOCC3)C2)c2c1cnc1[nH]c(-c3ccc(CN4CCC(S(C)(=O)=O)CC4)cc3)c(-c3ccccc3)c21 (racemic) [Example 12, trifluoroacetate salt]	< 5.60
CN1C(=O)C2(CCN(C3(CC#N)CCCC3)CC2)c2c1cnc1[nH]c(-c3cnn(C)c3)c(-c3ccc4c(cnn4C)c3)c21 [Example 73, trifluoroacetate salt]	6.30 to 7.00
CCS(=O)(=O)N1CC2(C1)CC1(C2)C(=O)N(C)c2cnc3[nH]c(-c4cnn(CC5CCOCC5)c4)c(-c4ccc5c(cnn5C)c4)c3c21 [Example 97, trifluoroacetate salt]	5.60 to 5.90
CN1C(=O)C2(CCN(CC3(CC#N)CC3)C2)c2c1cnc1[nH]c(-c3cnn4cccnc34)c(-c3ccc4c(cnn4C)c3)c21 (racemic) [Example 68, trifluoroacetate salt]	< 5.60
CN1C(=O)C2(CCN(C(C(N)=O)c3ccc(F)cc3)CC2)c2c1cnc1[nH]c(-c3cnn(C)c3)c(-c3ccccc3)c21 (racemic) [Example 26, trifluoroacetate salt]	≥ 7.00
CC(=O)N1CCC(n2cc(-c3[nH]c4ncc5c(c4c3-c3ccc4c(cnn4C)c3)C3(CCN(C4(CC#N)CCC4)CC3)C(=O)N5C)cn2)CC1 [Example 41, trifluoroacetate salt]	≥ 7.00
CCS(=O)(=O)N1CC2(C1)CC1(C2)C(=O)N(C)c2cnc3[nH]c(-c4ccc(CN5CCC(C#N)CC5)cc4)c(-c4ccc5c(cnn5C)c4)c3c21 [Example 91, trifluoroacetate salt]	5.60 to 5.90
CCNC(=O)NC1CC(CC#N)(N2CCC3(CC2)C(=O)N(C)c2cnc4[nH]c(-c5cnn(C)c5)c(-c5ccccc5)c4c23)C1 (stereo not drawn) [Example 28, trifluoroacetate salt]	6.30 to 7.00
CN1C(=O)C2(CCN(C3(CC#N)CCC3)CC2)c2c1cnc1[nH]c(-c3cnn(CC(C)(C)O)c3)c(-c3ccc4c(cnn4C)c3)c21 [Example 32, trifluoroacetate salt]	6.30 to 7.00
CN1C(=O)C2(CCN(c3ccncn3)CC2)c2c1cnc1[nH]c(-c3ccc(CN4CCC(S(C)(=O)=O)CC4)cc3)c(-c3ccccc3)c21 [Example 15, trifluoroacetate salt]	< 5.60
O=C(O)C(F)(F)F.[2H]C([2H])([2H])N1C(=O)C2(CC3(CN(S(=O)(=O)CC)C3)C2)c2c1cnc1[nH]c(-c3cnn(C(C)C)c3)c(-c3ccc4c(cnn4C)c3)c21	5.60 to 5.90
CN1C(=O)[C@@]2(CCN(CC3(CC#N)CC3)C2)c2c1cnc1[nH]c(-c3cnn(C)c3)c(-c3ccc4c(cnn4C)c3)c21 (single isomer, unassigned)	5.90 to 6.30
CN1C(=O)C2(CCN(C3(CC#N)CCC3)CC2)c2c1cnc1[nH]c(C3=CCC(C(=O)N4CCOCC4)CC3)c(-c3ccc4c(cnn4C)c3)c21 (racemic) [Example 34, trifluoroacetate salt]	5.90 to 6.30
CN1C(=O)C2(Cc3ccccc3C2)c2c1cnc1[nH]c(-c3ccc(CN4CCC(S(C)(=O)=O)CC4)cc3)cc21	< 5.60
CCCC(=O)N1CCC2(CC1)CC1(C2)C(=O)N(C)c2cnc3[nH]c(C4=CCC(C(=O)N(C)C)CC4)c(-c4ccc5c(cnn5C)c4)c3c21 (racemic) [Example 63, trifluoroacetate salt]	< 5.60
CO[C@H]1CC[C@@](CC#N)(N2CCC3(CC2)C(=O)N(C)c2cnc4[nH]c(-c5cnn(C)c5)c(-c5ccc6c(cnn6C)c5)c4c23)CC1 (single isomer, unassigned) [Example 75b]	5.90 to 6.30
CN1C(=O)C2(CCN(C3(CC#N)CCC3)CC2)c2c1cnc1[nH]c(-c3cn(C)nc3C3CC3)c(-c3ccc4c(cnn4C)c3)c21 [Example 40, trifluoroacetate salt]	< 5.60
CN1C(=O)C2(CCCC2)c2c1cnc1[nH]c(-c3cnn(C)c3)c(-c3ccc(CN4CCN(S(C)(=O)=O)CC4)cc3)c21 [Example 22, trifluoroacetate salt]	< 5.60
[2H]C([2H])([2H])n1ncc2cc(-c3c(-c4cnn(C)c4)[nH]c4ncc5c(c34)C3(CCN([C@](C)(CC#N)COC)CC3)C(=O)N5C)ccc21 (single isomer, unassigned) [Example 80a]	5.60 to 5.90
